test system: Arthrobacter 1 (Arthrobacter humicola); assay: relative growth (AUC of 72 h growth curve relative to DMSO control, dAUC) (ratio); higher = more growth (less inhibition), active = hit call of the paper; conditions: 20 µM
Classes are defined on relative growth with ranges interval 1 = under 0.9, interval 2 = from 0.9 up to 1, interval 3 = 1 and over

Worked examples, 3 compounds total:
INSERT INTO results (compound, group) VALUES
  ('CCCCCCCCCCCCNC(=N)N', 'interval 1'),
  ('CC1(C)C(C=C(Cl)Cl)C1C(=O)OC(C#N)c1ccc(F)c(Oc2ccccc2)c1 (stereo not given)', 'interval 3'),
  ('C/C(=N\C#N)N(C)Cc1ccc(Cl)nc1', 'interval 3');

For the record O=C(O)CNCP(=O)(O)O , report the class its relative growth corresponds to.
interval 2

For the record CC(Oc1ccc(Oc2ncc(C(F)(F)F)cc2Cl)cc1)C(=O)O (stereo not given) , report the class its relative growth corresponds to.
interval 3

For the record O=C1C2CC=CCC2C(=O)N1SC(Cl)(Cl)Cl (stereo not given) , report the class its relative growth corresponds to.
interval 2

For the record CC1(C)C(C(=O)OC(C#N)c2cccc(Oc3ccccc3)c2)C1(C)C (stereo not given) , report the class its relative growth corresponds to.
interval 3

For the record CC(C)CC(C)c1sccc1NC(=O)c1cn(C)nc1C(F)(F)F (stereo not given) , report the class its relative growth corresponds to.
interval 1

For the record CON(C)C(=O)Nc1ccc(Cl)c(Cl)c1 , report the class its relative growth corresponds to.
interval 2

For the record C#CCOc1ccc(CCNC(=O)C(OCC#C)c2ccc(Cl)cc2)cc1OC (stereo not given) , report the class its relative growth corresponds to.
interval 3

For the record CC(C)NC(=O)N1CC(=O)N(c2cc(Cl)cc(Cl)c2)C1=O , report the class its relative growth corresponds to.
interval 3

For the record O=[N+]([O-])/N=C1\NCCN1Cc1ccc(Cl)nc1 , report the class its relative growth corresponds to.
interval 2

For the record COC(=O)N(OC)c1ccccc1COc1ccn(-c2ccc(Cl)cc2)n1 , report the class its relative growth corresponds to.
interval 3

For the record N#Cc1c(Cl)c(Cl)c(Cl)c(C#N)c1Cl , report the class its relative growth corresponds to.
interval 1

###

test system: Aeromonas 3 (Aeromonas popoffii); experiment: relative growth (AUC of 72 h growth curve relative to DMSO control, dAUC) (ratio); higher = more growth (less inhibition), active = hit call of the paper; settings: 20 µM
relative growth reference

INSERT INTO results (compound, readout_type, result_value) VALUES
  ('CCc1cccc(C)c1N(C(=O)CCl)[C@@H](C)COC', 'relative growth', '0.992 (inactive)'),
  ('N#Cc1cc(Br)c(O)c(Br)c1', 'relative growth', '1.01 (inactive)'),
  ('CC(C)OC(=O)Nc1cccc(Cl)c1', 'relative growth', '1.05 (inactive)'),
  ('CCOCN(C(=O)CCl)c1c(C)cccc1CC', 'relative growth', '0.964 (inactive)');

What the record says about COP(=O)(NC(C)=O)SC (stereo not given) : relative growth is 0.998 (inactive)

What the record says about CO/C=C(/C(=O)OC)c1ccccc1COc1cccc(C(F)(F)F)n1 : relative growth is 0.97 (inactive)

What the record says about COCc1cnc(C2=NC(C)(C(C)C)C(=O)N2)c(C(=O)O)c1 (stereo not given) : relative growth is 1 (inactive)

What the record says about CCCSP(=O)(OCC)Oc1ccc(Br)cc1Cl (stereo not given) : relative growth is 0.994 (inactive)

What the record says about Oc1ccccc1-c1ccccc1 : relative growth is 1.01 (inactive)

What the record says about CCCCN(CCCC)SN(C)C(=O)Oc1cccc2c1OC(C)(C)C2 : relative growth is 1.05 (inactive)

What the record says about O=C(Nc1ccc(F)cc1F)c1cccnc1Oc1cccc(C(F)(F)F)c1 : relative growth is 1.01 (inactive)

What the record says about COCC(C)N(C(=O)CCl)c1c(C)csc1C (stereo not given) : relative growth is 0.964 (inactive)

What the record says about CCOP(=S)(OCC)Oc1cc(C)nc(C(C)C)n1 : relative growth is 0.98 (inactive)

What the record says about N#CC(CCc1ccc(Cl)cc1)(Cn1cncn1)c1ccccc1 (stereo not given) : relative growth is 1.01 (inactive)

What the record says about Cc1ccc(/N=C/N(C)/C=N/c2ccc(C)cc2C)c(C)c1 : relative growth is 1 (inactive)

What the record says about OC(Cn1cncn1)(c1ccc(F)cc1)c1ccccc1F (stereo not given) : relative growth is 1.01 (inactive)

What the record says about CC(C)(C)C(O)(CCc1ccc(Cl)cc1)Cn1cncn1 (stereo not given) : relative growth is 1.01 (inactive)

What the record says about COP(=S)(OC)Oc1nc(Cl)c(Cl)cc1Cl : relative growth is 1.01 (inactive)

What the record says about CN/C(=N/CC1CCOC1)N[N+](=O)[O-] (stereo not given) : relative growth is 1.05 (inactive)

What the record says about CC1(C)C(C=C(Cl)Cl)C1C(=O)OC(C#N)c1cccc(Oc2ccccc2)c1 (stereo not given) : relative growth is 1.08 (inactive)

What the record says about CCSC(C)CC1CC(=O)C(/C(CC)=N/OC/C=C/Cl)=C(O)C1 (mixture of isomers) : relative growth is 0.986 (inactive)

What the record says about CNC(=O)ON=C(C)SC : relative growth is 1.01 (inactive)

What the record says about CS(=O)(=O)c1ccc(C(=O)C2C(=O)CCCC2=O)c([N+](=O)[O-])c1 : relative growth is 0.97 (inactive)

What the record says about CCc1cnc(C2=NC(C)(C(C)C)C(=O)N2)c(C(=O)O)c1 (stereo not given) : relative growth is 1 (inactive)

What the record says about COc1ccc(-c2ccccc2)cc1NNC(=O)OC(C)C : relative growth is 1.02 (inactive)
